- Test system: cancer cell lines, DetermaIO classes
- Assay method text: Association of PRISM compound sensitivity with DetermaIO (DTIO) cell line classes
- Type: cell-based
- Condition description: correlation of PRISM compound sensitivity with DTIO (DetermaIO); test cell set (188 cell lines)
For each entry below, report its DTIO Corr test value.
Give bare numbers.

Previously resolved entries follow.
Structure smiles | DTIO Corr test
Cc1ncc(-c2ccnc(Nc3ccc(S(C)(=O)=O)cc3)n2)n1C(C)C | −0.1301
COc1ccc(C2CNC(=O)NC2)cc1O[C@H]1C[C@@H]2CC[C@H]1C2 | 0.000749
CC[C@H](C)[C@@H]([C@@H](CC(=O)N1CCC[C@H]1[C@H](OC)[C@@H](C)C(=O)N[C@@H](Cc1ccccc1)c1nccs1)OC)N(C)C(=O)[C@@H](NC(=O)[C@H](C(C)C)N(C)C)C(C)C | −0.08086
COc1cc(-c2ccc(N=Nc3ccc4c(S(=O)(=O)[O-])cc(S(=O)(=O)[O-])c(N)c4c3O)c(OC)c2)ccc1N=Nc1ccc2c(S(=O)(=O)[O-])cc(S(=O)(=O)[O-])c(N)c2c1O.[Na+].[Na+].[Na+].[Na+] | −0.07521
C[CH2][Hg][S]c1ccccc1C(=O)[O-].[Na+] | 0.0287
C=CC(=O)Nc1cccc(Sc2nc(Nc3ccc(N4CCN(C)CC4)cc3)ncc2Cl)c1 | 0.0423

Can you give me DTIO Corr test for all of these, one by one?
1. Nc1ncnc2c1c(-c1cnc3[nH]ccc3c1)nn2C1CCCC1
2. CCCCCCCCCCC(C)(C)C(=O)Nc1c(OC)cc(OC)cc1OC
3. Cc1cc(Nc2nc(N[C@@H](C)c3ccc(F)cc3)c(C#N)cc2F)n[nH]1
4. COc1cc2ncnc(Nc3cccc(Cl)c3)c2cc1OC
5. CC(C)c1cc(-c2ccc(F)c3ccccc23)nc(N)n1
6. CC(=O)NCC(=O)N1[C@@H]2CC[C@H]1c1ccc(Nc3ncc(C(F)(F)F)c(NC4CCC4)n3)cc12

Solution:
["−0.08787", 0.03532, "−0.07766", 0.02894, 0.0427, "−0.05974"]

----------
- Test system: cancer cell lines classified IM, MSL, M
- Assay method text: PRISM screen compound sensitivity correlated with IM, MSL and M subtype of cell lines (101 gene signature)
- Format: cell-based
- Condition description: correlation of PRISM compound sensitivity with MSL subtype correlation; test cell set
Label rule met when MSL Corr test is strictly below -0.01; at or above that, label rule not met.

# example entries with known answers
Compound | Class name
CCOC(=O)c1ncc2[nH]c3ccc(OCc4ccccc4)cc3c2c1COC.Cl | rule met
CN(CCOP(=O)(O)O)C(=N)N [creatinol-phosphate] | rule met
Cc1oc2nc3c(c(NC(=O)CN4CCCC4=O)c2c1C)CCCC3 | rule met
c1ccc(C(NCc2cccnc2)(c2ccccc2)c2ccccc2)cc1 | rule not met
C=CC(=O)Nc1cc2c(Nc3ccc(F)c(Cl)c3)ncnc2cc1C#CC(C)(C)N1CCN(C)CC1.Cc1ccc(S(=O)(=O)O)cc1.Cc1ccc(S(=O)(=O)O)cc1 | rule not met

Note: attention shifts to another entry.
Exercise: API: query returns whether the compound falls strictly under -0.01 in MSL Corr test. Query: `COc1ccc(-c2cc(=O)c3c(OC)c(OC)c(OC)c(OC)c3o2)cc1`
Solution: rule met
